system: Thyroid gland; assay: Biodistribution in thyroid of C57BL/6 mouse bearing mouse B16-F0 cells at 0.74 to 0.92 MBq, iv after 1 hr; format: ADME, organism-based; details: in vivo
Please respond with reported Drug uptake for every item in the list.
Give your result in % ID/g as a bare value.

Determine its reported Drug uptake: CCN(CC)CCNC(=O)c1ccc([125I])nc1.Cl.Cl
25.29

Determine its reported Drug uptake: CCN(CC)CCNC(=O)c1cc2cc([125I])ccc2o1.Cl
16.78

Determine its reported Drug uptake: CCN(CC)CCNC(=O)c1cc2c([125I])cccc2cn1.Cl.Cl
16.88

Determine its reported Drug uptake: CCN(CC)CCNC(=O)c1cc2c([125I])cccc2s1.Cl
24.03

Determine its reported Drug uptake: CCN(CC)CCNC(=O)c1ccc2cncc([125I])c2n1.Cl.Cl
20.16
